Where do these numbers come from? They come from PubChem BioAssay (NCI).

System: RPMI-8226 leukemia
Test: NCI-60 one-dose screen, 48 h
Conditions: 10 µM unless noted
This is part of a sample that, as a whole, favours compounds with a hit. Of some 83,000 tested, about 20% had one in any assay. Active and inactive are the calls of the source. The calls were made as follows: active = growth percent below 10; inactive = the rest.
Outcomes: active, inactive

>  <molecule>
COC(CC(F)F)c1cn(S(=O)(=O)c2ccc(C)cc2)c2ccccc12 (centres undefined)

>  <group>
inactive

$$$$
>  <molecule>
N#CC(C#N)N=Nc1ccc(Br)cc1

>  <group>
inactive

$$$$
>  <molecule>
CN1CCN(C(=O)c2ccc(NC(=O)c3cc4c(nn3)NCCN4Cc3cc(Cl)ccc3Cl)cc2)CC1

>  <group>
inactive

$$$$
>  <molecule>
COc1ccc(Cc2cnc(NC(=O)c3cc(C)oc3C)s2)cc1

>  <group>
inactive

$$$$
>  <molecule>
O=C1/C(=C/c2cccc(F)c2)CN(C(=O)C(Cl)Cl)C/C1=C\c1cccc(F)c1

>  <group>
active

$$$$
>  <molecule>
CC/C(=C(/c1ccc(Cl)cc1)c1ccc(OCCN2CCCCC2)cc1)c1ccc(OC)cc1

>  <group>
active

$$$$
>  <molecule>
CCN(CC)CC(O)COc1c(Br)c(Br)c(Br)c2c1OC(C)(C)C2 (centres undefined)

>  <group>
inactive

$$$$
>  <molecule>
COc1ccc(/C=N/NC(=O)c2ccc(-n3cc(-c4ccccc4)nn3)cc2)cc1OC

>  <group>
inactive

$$$$
>  <molecule>
CSc1oc(C)nc1[P+](c1ccccc1)(c1ccccc1)c1ccccc1

>  <group>
active

$$$$
>  <molecule>
COc1ccc(/C=C(\C#N)n2nnc3ccc(Cl)cc32)cc1

>  <group>
inactive

$$$$
>  <molecule>
CCOC(=O)c1ccc(NC(=O)c2nc(-c3cc(OC)c(OC)c(OC)c3)n(-c3ccc(Cl)cc3)n2)cc1

>  <group>
inactive

$$$$
>  <molecule>
COc1ccc(/C=N\Nc2nc(SCCC(C)C)nc(-c3ccc(OC)cc3)c2C#N)cc1

>  <group>
inactive

$$$$
>  <molecule>
CC(=O)Oc1ccc(N2C(=O)C(Cl)=C(Nc3cccc(C(F)(F)F)c3)C2=O)cc1

>  <group>
inactive

$$$$
>  <molecule>
CC(C)=CCCC(C)c1ccc(C)c2c1OCN(CCCCCO)C2 (centres undefined)

>  <group>
inactive

$$$$
>  <molecule>
CCCCCOC(=O)c1c(C)[nH]c(/C=C2\N=C(c3ccc[nH]3)C=C2OC)c1C

>  <group>
active

$$$$
>  <molecule>
O=C(Nc1ccc(OS(=O)(=O)c2ccc(F)cc2)cc1)C1CCCCCC1

>  <group>
inactive

$$$$
>  <molecule>
COc1ccc(-c2ccc(=O)oc2-c2cc(OC)c(OC)c(OC)c2)cc1O

>  <group>
active

$$$$
>  <molecule>
COC(=O)CC[C@H](C)[C@H]1CC[C@H]2[C@@H]3CC[C@@H]4CC5(CC[C@]4(C)[C@H]3CC(=O)[C@]12C)Nc1ccccc1NC5=NC(C)(C)C (some centres undefined)

>  <group>
inactive

$$$$
>  <molecule>
N#Cc1c(-c2ccccc2)[nH]c2ncc(-c3ccccc3)n2c1=O

>  <group>
inactive

$$$$

----------
Test system: CCRF-CEM leukemia
Experiment: NCI-60 one-dose screen, 48 h
Conditions: 10 µM unless noted
About 83,000 compounds went through this panel and 20% of them were active in at least one assay; those are over-represented in the sample as a whole. Calls of active or inactive are those of the source. Rule for the calls: active = growth percent below 10; inactive = the rest.
Outcomes: active, inactive

>  <molecule>
N=C(N)c1ccc(-c2ccc(-c3ccccc3)o2)cc1

>  <group>
active

$$$$
>  <molecule>
COC(=O)Nc1nc2ccc(S(=O)c3ccccc3)cc2[nH]1 (centres undefined)

>  <group>
inactive

$$$$
>  <molecule>
CC(=O)N1N=C(c2ccc(Nc3nc(Nc4ccccc4)nc(Nc4ccccc4)n3)cc2)CC1c1ccccc1 (centres undefined)

>  <group>
inactive

$$$$
>  <molecule>
CC1CCN(S(=O)(=O)c2ccc(S(=O)(=O)N3CCCC(c4nc5c(nnn5Cc5cccc(Cl)c5)c(=O)[nH]4)C3)cc2)CC1 (centres undefined)

>  <group>
inactive

$$$$
>  <molecule>
Nc1cc(C(=O)NC[C@H]2CN(c3ccc(N4CCC(C(=O)O)CC4)cc3)C(=O)O2)ccc1Cl

>  <group>
inactive

$$$$
>  <molecule>
O=C(c1nn(-c2ccccc2)c2c1CC(NCc1ccc(F)cc1)CC2)N1CCCCC1 (centres undefined)

>  <group>
inactive

$$$$
>  <molecule>
C#CCOc1cccc(Nc2ncnc3ccc(NC(=O)C=C)cc23)c1

>  <group>
inactive

$$$$
>  <molecule>
Clc1ccc(/C=N\N=C\c2ccc(Cl)c(Cl)c2)cc1Cl

>  <group>
inactive

$$$$
>  <molecule>
COc1cc(-c2nc3sccn3c2-c2ccnc(NCCNS(=O)(=O)c3ccccc3)n2)ccc1F

>  <group>
inactive

$$$$
